apparent KD of MS2 coat protein overview
- Test system: MS2 coat protein
- methodNotes: apparent KD of MS2 coat protein; designed switch direction (-1 OFF switch, 1 ON switch): 1; higher = weaker reporter binding
- setupConditions: input ligand: none
Report as a plain number; the unit nM is understood.

# seq, apparent KD of MS2 coat protein / nM
data = [
    ("ACUCUCACAGUAGGAUAUGUAGGAUAUGCCUACAUGAGGAUCACCCAUGUAAACAUGGCAGAAGGAUAGAAGGACUUACAUUGG [pwkr ssNG2 2FMN + 1F5.1] (Eterna round: R96, puzzle: Same State NG 2)", 762),
    ("CCAUAGUACAAUUUAGAUCUACAUGAGGAUCACCCAUGUACUGAGGAUAUCAGCUCGUUUAGAGCUGAGAAGGCAGAAGUACUU [SSNG3/6-A3] (Eterna round: R96, puzzle: Same State NG 3)", 102),
]

Continue with the sequence presented below.
Query :: Any idea what its apparent KD of MS2 coat protein is? The sequence is UUCUCCUUUUUUUACAUGAGGAUCACCCAUGUUUUUCUUACGUAGGAUAUCGUUGUUUUUUUUUACGAGAAGGACGUAGUAAGU [JR_SSND3_Sub060] (Eterna round: R96, puzzle: Same State NG 3)
Result :: 36.2

* * *

apparent KD of MS2 coat protein overview
- Tested on: MS2 coat protein
- methodNotes: apparent KD of MS2 coat protein; designed switch direction (-1 OFF switch, 1 ON switch): 1; higher = weaker reporter binding
- setupConditions: input ligand: microRNA oligo, concentration not stated
Report as a plain number; the unit µM is understood.

# seq, experimentalSystem, apparent KD of MS2 coat protein / µM
rows = [
    ("GUAGCAUACCGAGGAUAUUCAUAUUACAUGAGGAUCACCCAUGUAAGGCCACAUUAGUGGCCUUGGGAGAAGGCGGAAUGCUAC [Xeonanis - 20 Mod42] (Eterna round: R96, puzzle: Same State NG 2)", "MS2 coat protein", 0.03),
]

Continue with the sequence presented below.
Query :: Any idea what its apparent KD of MS2 coat protein is? The sequence is GGUGCGAAUAAAGCCUACAUGAGGAUCACCCAUGUAUGUAGGCAGGAUAUCGUUUGCAAAGCAAACGAGAAGGGCUGUCGCACC [Mat - Same State NG 3 - JL Mod - D46] (Eterna round: R96, puzzle: Same State NG 3)
Result :: 0.0552

* * *

apparent KD of MS2 coat protein overview
- System: MS2 coat protein
- methodNotes: apparent KD of MS2 coat protein; designed switch direction (-1 OFF switch, 1 ON switch): -1; higher = weaker reporter binding
- setupConditions: input ligand: FMN 200 uM
Report as a plain number; the unit nM is understood.

# seq, endpointValue
data = [
    ("CCUAGUGUCGGAGGAUAUCCUACACAAACCUUAGGAGAAGGCCGACAUGAGGAUCACCCAUGUAAAACCUAAACCUAAAAUCAA [Raesusbi] (Eterna round: R96, puzzle: Exclusion NG 1)", 48.9),
]

Query :: Any idea what its apparent KD of MS2 coat protein is? The sequence is UAACAAAUUGUCAGGAUAUCAAUCCCGGCCCAGAUUGAGAAGGGACAUGAGGAUCACCCAUGUAUGAUUCUCAA [jl-ex4-4.51 ViennaUCT mod] (Eterna round: R97, puzzle: Brourd's mod of Exclusion 4)
Result :: 65.4

Query :: Now the sequence ACAUGAGGAUCACCCAUGUCUGGCUGGUCUGCUCCGGUUGUUGAGGAUAUAGUUCGGUGUUCGCGCUAGAAGGUGAGGGCUGGC [Aenatbe mod 38] (Eterna round: R96, puzzle: Exclusion NG 3)
Result :: 34.4

Query :: Now the sequence UGCAGACGAGGAUAUAAAUUUAAAUACAUGAGGAUCACCCAUGUAUAAAUGUAUUUAAAUUUAGAAGGCGUCUGCU [E5/12-A4] (Eterna round: R97, puzzle: Exclusion 5)
Result :: 500

Query :: Now the sequence AUAUAGCGAGGAUAUACAUGAGGAUCACCCAUGUAAUAAAUAUAUAUAUUUAUAUUAUGUAGAAGGCGCUAUAU [-18.5, -17.2 kcal, 39% A] (Eterna round: R97, puzzle: Exclusion 3)
Result :: 30.3

Query :: Now the sequence CGUCUGUGAGGAUAUGGUAUCGUUUACAUGAGGAUCACCCAUGUUACAUGGGACUAGAGACUAGAAGGUACGGACG [EX5 #48] (Eterna round: R97, puzzle: Exclusion 5)
Result :: 461

Query :: Now the sequence CCUCUUGGGCAAGGAUAUCCUGUGCGGUUCCGGCUCGUGUCUGUCACAUGAGGAUCACCCAUGUGGGAGAAGGUGCCUGCGGUC [Design 80] (Eterna round: R96, puzzle: Exclusion NG 2)
Result :: 13

Query :: Now the sequence GCAGCAUAGUUUACUAACUGUUACAUGAGGAUCACCCAUGUCUAGGAUAUGGUCUGGAUUACAGGCCAGAAGGAGAAAAGCUGC [Eli exng3 - 036] (Eterna round: R96, puzzle: Exclusion NG 3)
Result :: 15.3

Query :: Now the sequence AAAUAACAAGCGAGAUCCUACAUGAGGAUCACCCAUGUGCUCGUCUUAAUAAGUACUAUCACGAAAGUGAUAGUACA [Mat - Sensor v3 - turn-off var 1 - Eli Mod - D67] (Eterna round: R96, puzzle: Sensor v3, turn-off variant 1)
Result :: 15.8

* * *

- System: MS2 coat protein
- methodNotes: apparent KD of MS2 coat protein; designed switch direction (-1 OFF switch, 1 ON switch): -1; higher = weaker reporter binding
- setupConditions: Eterna round: R95; input ligand: microRNA oligo, concentration not stated
Mark criterion not met for apparent KD of MS2 coat protein values under 400 nM, and criterion met for everything at or above.

// below: answered sequences
# seq, labelValue
records = [
    ("UUAUUACGAGGAUAUCGUUUUUAUCACAUGAGGAUCACCCAUGUUGUUUAUGUUUCGUUUCGAGAAGGCGUUUGUU [JR_E5_Sub066] (puzzle: Exclusion 5)", "criterion not met"),
    ("UAUACACAUGAGGAUCACCCAUGUGAGGAUAUGUACAACAACAAGACGGAAAAAAAAUACAGAAGGCACAAAUA [JR_Exclusion1_Sub028] (puzzle: Exclusion 1)", "criterion not met"),
    ("AGGUGGAAGCAGGAUAUGCUAGAAGUGUAGAAUGCAGAAGGGCUAACAUGAGGAUCACCCAUGUAAGAGGUGUA [JR_E6_Sub051] (puzzle: Exclusion 6)", "criterion not met"),
    ("AGUACUAACCCGAAAGUGUUAGUACAAUAAGCUUGUGAAACAUGAGGAUCACCCAUGUCCUCAUAAGCUCGUCUUAU [salish99_TOv2_r3_024] (puzzle: Sensor v3, turn-off variant 2)", "criterion met"),
]

Query :: Test whether the sequence GUUAGUUAAGGAUAUACAGGGAGCUGCGGCGUCUCGCCGCAACAUGAGGAUCACCCAUGUAGAAGGUGACCUUU [JL ViennaUCT Enbibi mod 7] (puzzle: Exclusion 2) records apparent KD of MS2 coat protein of 400 nM or higher.
Result :: criterion met

* * *

- Test system: MS2 coat protein
- methodNotes: apparent KD of MS2 coat protein; higher = weaker reporter binding
- setupConditions: Eterna round: R107; input ligand: arginine 13.2 mM
apparent KD of MS2 coat protein overview
Report as a plain number; the unit nM is understood.

Recorded apparent KD of MS2 coat protein, per entry:
# seq, measure, endpointValue
measured = [
    ("UUAAUCUAUGAAGAAAACUUUAUAGCAGAAGGAGCGUGAUAAAACACAGGUAGGUCGCUGAAGGGAACAUGAGGAUCACCCAUGU [AstrosSSArgA#19]", "apparent KD of MS2 coat protein", 23.7),
    ("UGACAUGAGGAUCACCCAUGUAUAACUGAAGGAGCGUCCAUAAGGACAGGUAGGUCGCGGAAUGAACAGAGUGCACGACAUGUUU [Arg A SS t1]", "apparent KD of MS2 coat protein", 12.8),
]

Query :: Any idea what its apparent KD of MS2 coat protein is? The sequence is "GGCCGAAACGGCCAAGGUAUCAUGACCGAUACCAGCGAAGAAGAACGCCCUUGGCAGCGGACAUGAGGAUCACCCAUGUAAAGAA"
Result :: 24.5

Query :: Now the sequence UUUACAUGAGGAUCACCCAUGUGCCAUGAUACCAGACAUGAAAAUGUCCCUUGGCAGCAUGAGUGAUGCAUCCGAAAGGAUGUUU [Ivanovice]
Result :: 97.2

Query :: Now the sequence UGGGUACCGACGGCCGCCACUGAAUAUAGACAUGAGGAUCACCCAUGUAGAGAUCCUAGAAUAAACAGGACCGGGUCUGGUGCUA [Exclusion Tryptophane B GF5]
Result :: 92.4

Query :: Now the sequence UGUAACAUGAGGAUCACCCAUGUGAGUGAUACCAGACUAGUGUUAGUCCCUUGGCAGCACGCUGGACGAAUGUGUAGUCUAUGCG [Same State - Theophylline A (Freestyle 19)]
Result :: 55.8

Source listed as the supplement of paper PMC9170038.
